- assay: yeast display, Sf9 membrane polyspecificity reagent, FACS + sequencing; frameworks hold sequencing errors

sequence.entry	polyreactivity (PSR sort gate)
QDQLVESGGGLVQAGGSLRISCAASGRIFRRNTMGRYRQAPGKERELVADINSSDGDTYYADSVKGRFTISRDNAKNTVYLQMNSLKPEDTAVYYCAADLSPLGEMDYWGQGTQVTVSS	low polyreactivity
QVQLVESGGGLVQAGGSLRLSCAASGFTFYWYAMGWYRQAPGKERELVAAITSGGGTTYYADSVKGRFTISRDNAKNTVYLQMNSLKPEDTAVYYCAADSYTYPWIERDYWGQGTQVTVSS	high polyreactivity
QVQLVESGGGLVQAGGSLRLSCAASGFIFYHNAMGWYRQAPGKERELVAAISYSGGSTYYADSVKGRFTISRVNAKNTVYLQMNSLKPEDTAVYFCATPQTRTYDYWGQGTQVTVSS	high polyreactivity
QVQLVESGGGLVQAGGSLRLSCAASGSIILAYAMGWYRQAPGKERELVAAITGSGGRTYADSVKGRFTISRDNAKNTVYLEMNSLKPEVTAVYYFAAYYYGNWQGYYWGQGTQVIVSS	low polyreactivity
QVQLVESGGGLVQAGGSLRLSCAASGSIFEGYVMGWYRQAPGKERELVATISFSGGSTYYADSVKGRFTISRDNAKNTVYLQMNSLKPEDTAVYYCNALVYHTKGDYGYWGHGTQVTVSS	low polyreactivity
QVQLVESGGGLVQAGGSLRLICAASGRTFGSNAMGWYTQAPGKERELVAAIRERGGSTYADSVKGRFTISRDNAKNTVYLQMNCLKQEDTAVYYCNAVYVRSSLYYTGWSTFYYWGQGTQVTVSS	low polyreactivity
QVQLVESGGGLVQAGGSLRLSCAASGFTFSRYAMGWYRQAPGKERELVAAISLRGGRTYYADSVKGRFTISRDKTKNSVYLQMNSLKPEDTAVYYCNRDYRGPYYYWGQGSQVTVSS	high polyreactivity
QFQHVESGGCLDQAGRSLRLSSAASGYIFVNAMGWYRQPPGKEMELVAAISSGGSTHYADSVKGRFTISRDNAKYTVYLQMNSLKPEDTAVYYCAAGSFYYGIVQGWYDYWGQGTQVTVSS	high polyreactivity
QDQLVESGGGLVQAGGSHRLSCAASGRTFYLYAMGWYRHAPGKERELVAGISYRGSRTYYADSVKVRFTISRDYEKNTVYLQMNSLKPEDTAVYYCATPAGQAAYDYWGQGTQVTVSS	high polyreactivity
QVQLVESGGGLVQAGGSLRLSCAASGSTLVKYAMGWYRQAPGKERELVAAISWSGGRTYYADSVKGRFTISRDNAKNTVYLQMNSLKPEDTAVYYCAARSTRFYTPGYYYWGQGTQVTVSS	high polyreactivity
QVQLVESGGGLLQAGGSLRLSCAASGSIFQYNAMGWYRQAPGKERELVAAINGGGSTYYADSVKGRFTISRDNAKNTVYLQMNSLKPEDTAVYYCAADGGAYSYRGPGKFGIEDSWGQGTQVTVSS	low polyreactivity

###

- assay: yeast display, Sf9 membrane polyspecificity reagent, FACS + sequencing; frameworks hold sequencing errors
property.measured: polyreactivity (PSR sort gate)

sequence.entry	meas.value
QVQLVESGGGLVQAGGSLSLSCASTGFIITQNAMGWYRQAHGKERYLVAAISWRAGSTYYADSVKGRFTISRDNAKNTVYLQMNSLKPEDTAVYYCATRQTKYSNYRGDYWGQGTQVTVSS	high polyreactivity
QVQLVESGGGLVQAGGSLRLSSAASGRTFGVNAMGWYRQAPGKERELVASISWGGGSTYYADSVKGRFTISRDNAKNTVYLQMNSLKPEDTAVYFCNRAYVRYVPMNYWGQGTQVTVSS	high polyreactivity
QVQLVESGGGLVQAGGSLRLSCAASGSTFVANAMGWYIQAPGKERELVAAISFNRGGNTYYADSVKGRFTISRDNAKNTVYLQMNSLKPEDTAVYYCAAAQRELPTVRRNYWGQGTQVTVSS	high polyreactivity
QVQHVESGVGLVQAGGSLRLSCAASGSIFVHNAMGWYRQAPGKERELVAGISARAASTYYADSVKGRFTISRDNAKNTVYLQMNSLKPEDTAVYYCAADRIPGYRVYGFYYWGQGTQVTVSS	low polyreactivity
QVQLVESGGCLVQAGGSLRLSCAASGRIFHSNAMGWYRQAPGKERELVAAISTAGSTYYADSVKGRFTISRDNAKNTVYLQMNSLKPEDTAVYYCNAESPWWWEYDSWGQGTQVTVSS	high polyreactivity
QVQLVESGVCLVQAGGSLRLSCAASGRIFYYYTMGWYRQAPGKERELVAAITSGGSTYYADSVKGSFTISRDNAKNTVYLQMNSLKPEDTAVYYCNAEFDDKYDYWGQGTQVTVSS	low polyreactivity
QVQLVESGGGLVQAGGSLRLSCAASGSTFVRNAMGWYRQAPWKERELVAAIRWRSGSTYYADSVKGRFTISRDNAKNTVYLQMNSLKPEDPAVYYCAVDYNSFRYGPLGYWGQGTQVTVSS	high polyreactivity
QVQLVESGGGLVQAGGSLRLSCAASGSTTSVNAMGWYTQAPGKEREFVATISFGGGRTYYADSVKGRFTISRDNAKNTVYLQRNSRKPEDTAVYYCAAVGSRWFSQTWRDYWGQGTQVTVSS	high polyreactivity
QVQLVESGGGLVQAGGSLRLSCAASGSIFTIYAMGWYRQAPGKERELVAAINRGDGTNYADSVKGRFTISRDNAKNTVYLQMNSLKPEDTAVYYCAAKAYTNYDRQVNLRRYYWGQGTQVTVSS	high polyreactivity
QVQLVESGGGLVQAGGSLRLSCAASGSIFHINAMGWYRQAPGKERELVADISQRGGSTYYADSVKGRVTISRDNAKNTVYLQMNSLKPEDTAVYYCAVVHVFYAVSYFSFYTYEYWGQGTQVTVSS	low polyreactivity
QVQLVESGGGLVQAGGSLRLSCAASGRIFSYNAMGWDRQAPGKERELVSAISYGGGRTYYADSVKGRFTISRYNAKNTVYLQMNSLKPEDTAVYYCNRYGRQYDFFYWGQGTQVTGSS	high polyreactivity

All values here come from the nanobody polyreactivity screen of Harvey et al. (2022).
